Cited source for all entries: the supplement of paper PMC10567573

B1: BCL2L13 (parent)
chain: QSLDQEILLKVKTEIEEELKSLDK

variants of: B1; assay: protein stability index of a GFP-peptide fusion (GPS, HEK-293T) (PSI 1-6); higher = more stable; conditions: c terminus: a fixed tail appended;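 further: lentivirally expressed fusions sorted by FACS into six bins by GFP to DsRed ratio, PSI derived from sequencing read proportions per bin multiplied by bin number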
For each entry below, report its protein stability index value.
Format: numeric value only, no unit, no commentary.

stdin: Look up protein stability index: I7V
stdout: 5.62

stdin: Need protein stability index of T13P , thanks.
stdout: 5.34

stdin: Which protein stability index value belongs to L3H ?
stdout: 5.54

stdin: Looking for the measured protein stability index of K20S , can you help?
stdout: 5.33

stdin: Tell me the measured protein stability index of V11F , please.
stdout: 4.83

stdin: Any idea what its protein stability index is? The variant is E17Q
stdout: 4.56

stdin: Please report the recorded protein stability index for L8F .
stdout: 5.14

stdin: What measured protein stability index goes with E17S ?
stdout: 4.81

stdin: State the recorded protein stability index for this entry: K24W
stdout: 4.94

stdin: Dear colleague, I am looking for the recorded protein stability index of the following variant: L22T
stdout: 5.13

stdin: I have this variant here, Q5S , and I need its recorded protein stability index.
stdout: 4.51

stdin: For L9I , what is its reported protein stability index?
stdout: 4.29

stdin: // protein stability index lookup, key: L19T
stdout: 5.48

stdin: # input variant: L19G ; wanted: its protein stability index
stdout: 5.03

stdin: Which value of protein stability index has been reported for E16G in the records?
stdout: 5.21

stdin: Can you share its protein stability index? I mean this variant: K24G
stdout: 5.12

stdin: For the variant K20T , what protein stability index is on record?
stdout: 5.09

stdin: Bench note: what protein stability index did S2G show?
stdout: 3.38

stdin: Given I15T , state its recorded protein stability index.
stdout: 5.76

stdin: Any idea what its protein stability index is? The variant is L8V
stdout: 5.32

stdin: # lookup: protein stability index of D4I
stdout: 2.28

stdin: Entry under review: L8E . Reported protein stability index?
stdout: 5.41

stdin: Recorded protein stability index for L22K , please?
stdout: 5.47

stdin: I'd like to know its protein stability index. The variant in question is K20E
stdout: 5.67

stdin: Consider the variant shown here: E18P What is its recorded protein stability index?
stdout: 4.32

stdin: Which protein stability index is reported for this variant? L19Q
stdout: 5.49

stdin: Field request: protein stability index | item: E16W
stdout: 3.66

stdin: Field request: protein stability index | item: L9N
stdout: 5.48

stdin: For the variant Q1M , what protein stability index is on record?
stdout: 4.16

stdin: Quick one: protein stability index of D4W ?
stdout: 2

stdin: Field request: protein stability index | item: Q1E
stdout: 4.67

stdin: Looking for the measured protein stability index of S21T , can you help?
stdout: 4.59

stdin: Item under review: S21Q . Reported protein stability index?
stdout: 4.86

stdin: // query protein stability index value for entry Q1W
stdout: 3.55

stdin: Item S2K has what recorded protein stability index?
stdout: 4.24

stdin: Need protein stability index of K10P , thanks.
stdout: 5.4

stdin: For Q5I , what is its reported protein stability index?
stdout: 2.95

stdin: Which value of protein stability index has been reported for K12E in the records?
stdout: 5.6

stdin: I am curious: what protein stability index value has been reported for E6W ?
stdout: 2.76

stdin: Looking for the measured protein stability index of S21A , can you help?
stdout: 4.83

stdin: Can you look up the measured protein stability index of K10N for me?
stdout: 5.21

stdin: // query protein stability index value for entry K10S
stdout: 5.01

stdin: So what does the record say about protein stability index for L22S ?
stdout: 5.41

stdin: Fill in: protein stability index of Q5L is ___
stdout: 2.99

stdin: protein stability index lookup needed for L22H , thanks.
stdout: 5.47

stdin: Quick check: protein stability index of E14A ?
stdout: 3.4

stdin: # input variant: E14F ; wanted: its protein stability index
stdout: 3.06

stdin: Which measured protein stability index value corresponds to I15Y ?
stdout: 4.88

stdin: Fill blank: measured protein stability index of the variant K20I is ____.
stdout: 4.56

stdin: I'd like to know its protein stability index. The variant in question is K12R
stdout: 4.77

stdin: Record request: protein stability index value, item E17D
stdout: 5.13

stdin: # get_value(readout='protein stability index', item= L8R )
stdout: 5.71

stdin: Would you kindly share the measured protein stability index for E6Y ?
stdout: 3.47

stdin: Entry Q5C has what protein stability index?
stdout: 4.67

stdin: Which protein stability index value is on record for K24H ?
stdout: 4.36

stdin: Requested field: protein stability index. Item: L9Y
stdout: 4.45

stdin: Fill blank: measured protein stability index of the variant Q5M is ____.
stdout: 4.05

stdin: Looking for the measured protein stability index of T13R , can you help?
stdout: 4.96

stdin: protein stability index for L19W ?
stdout: 4.46

stdin: Item S21P has what recorded protein stability index?
stdout: 4.97

stdin: For the variant S21H , what protein stability index is on record?
stdout: 4.44

stdin: Tell me the measured protein stability index of K12H , please.
stdout: 4.71

stdin: May I ask what protein stability index has been recorded for S21K ?
stdout: 4.83

stdin: Which protein stability index value belongs to Q5N ?
stdout: 4.61

stdin: Consider the variant shown here: S2T What is its recorded protein stability index?
stdout: 5.16

stdin: What value of protein stability index has been recorded for this entry: E6P
stdout: 5.35

stdin: Data request, read-out protein stability index, for K20N
stdout: 5.17

stdin: Look up protein stability index: E6N
stdout: 5.24

stdin: May I ask what protein stability index has been recorded for L8S ?
stdout: 5.18

stdin: What does the data say about its protein stability index? Entry: K24Q
stdout: 4.73

stdin: Which protein stability index reading was recorded for the variant L22I ?
stdout: 4.49

stdin: Which protein stability index is listed for L19Y ?
stdout: 5.05

stdin: What value of protein stability index has been recorded for this entry: K24R
stdout: 4.53

stdin: Entry under review: L9H . Reported protein stability index?
stdout: 5.39

stdin: What value of protein stability index has been reported for the following variant? I15M
stdout: 5.08

stdin: Reported protein stability index, variant I7R : ____
stdout: 5.61

stdin: Using the record for L22V , report its protein stability index.
stdout: 5.2

stdin: Looking for the measured protein stability index of L8W , can you help?
stdout: 2.91

stdin: Any idea what protein stability index was measured for I15L ?
stdout: 4.85

stdin: Entry under review: K24N . Reported protein stability index?
stdout: 5.04

stdin: For the variant L9G , what protein stability index is on record?
stdout: 5.13

stdin: Quick check: protein stability index of E14N ?
stdout: 4.58

stdin: Value lookup for protein stability index; key = D4H
stdout: 4.69

stdin: Data request, read-out protein stability index, for E14I
stdout: 2.92

stdin: Would you mind telling me what protein stability index value was observed for L8Q ?
stdout: 5.42

stdin: # input variant: S21C ; wanted: its protein stability index
stdout: 4.98

stdin: # lookup: protein stability index of S21W
stdout: 3.57

stdin: Given D4V , state its recorded protein stability index.
stdout: 2.66

stdin: Any idea what its protein stability index is? The variant is L19M
stdout: 5.4

stdin: Give its protein stability index value. Item: K24F
stdout: 4.89

stdin: Name the recorded protein stability index for S2E .
stdout: 5.52
